# Test system: CYP1A2, CYP2B1, CYP2E1
# assay: in vitro
# experimental_parameters: pH 7.4, Regioselectivity BzH:Arom, range, isoforms 1A2, 2B1 and 2E1
recorded_endpoint: selectivity ratio at 20 min, […]

molecule | result
COc1ccccc1C [o-Methylanisole, o-methylanisole] | 0.3 to 0.6

###

# target_or_system: CYP2B1 (Rattus norvegicus)
# Sequence (P00176 1-491): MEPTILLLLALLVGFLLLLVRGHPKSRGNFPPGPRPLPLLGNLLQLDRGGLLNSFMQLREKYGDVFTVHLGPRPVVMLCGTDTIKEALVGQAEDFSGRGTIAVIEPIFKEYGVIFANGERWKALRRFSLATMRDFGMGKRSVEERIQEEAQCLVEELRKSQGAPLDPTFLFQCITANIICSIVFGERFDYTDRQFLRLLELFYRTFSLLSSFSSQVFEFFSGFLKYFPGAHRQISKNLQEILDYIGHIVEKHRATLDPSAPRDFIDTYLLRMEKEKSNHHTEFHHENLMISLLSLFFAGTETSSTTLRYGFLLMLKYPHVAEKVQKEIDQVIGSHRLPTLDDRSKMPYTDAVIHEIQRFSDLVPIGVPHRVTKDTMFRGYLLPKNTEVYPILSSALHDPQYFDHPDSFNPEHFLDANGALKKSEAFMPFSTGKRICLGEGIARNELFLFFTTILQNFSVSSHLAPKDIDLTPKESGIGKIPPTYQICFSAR
# Intramolecular KIE (kH/kD) per entry

chemical_smiles | Intramolecular KIE (kH/kD)
Cc1ccc(Br)cc1 | 8.02
[2H]Cc1ccc(C[2H])cc1 | 6.23
COc1ccccc1C | 5.78
Cc1ccc(C#N)cc1 | 11.9
COc1ccc(C)cc1 | 3.69
Cc1ccccc1 | 7
